Entries and their inhibition
Target entity: L-lactate dehydrogenase (Plasmodium falciparum (isolate CDC / Honduras)) (UniProt Q27743)
Sequence (Q27743 whole entry, looked up): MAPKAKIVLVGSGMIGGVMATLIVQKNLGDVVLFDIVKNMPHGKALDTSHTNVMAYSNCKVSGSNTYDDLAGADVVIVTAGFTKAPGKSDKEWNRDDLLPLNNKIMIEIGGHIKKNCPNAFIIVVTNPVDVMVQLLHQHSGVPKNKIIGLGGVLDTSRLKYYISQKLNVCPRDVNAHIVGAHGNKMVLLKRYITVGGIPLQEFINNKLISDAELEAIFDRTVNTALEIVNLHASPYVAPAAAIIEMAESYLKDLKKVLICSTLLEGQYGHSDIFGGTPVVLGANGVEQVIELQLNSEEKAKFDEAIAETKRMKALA
Procedure summary: PfLDH activity inhibition – cell lysate, 3D7 strain, counter-screen for P. falciparum growth inhibition project (AID 2304);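 note: 0% = vehicle and 100% = reference inhibitor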
Condition details: P. falciparum 3D7 crude extract, LDH APAD/NBT absorbance; at 2 µM; active compounds read high
Only the number, expressed in %, is required.

// below: answered compounds
{"Compound": "CCC[C@@H]([C@@H](CC(C)C)C(=O)N[C@H](C(=O)Nc1nccs1)C(C)(C)SCCNC(=O)OCC)N(O)C=O", "Target entity": "L-lactate dehydrogenase (Plasmodium falciparum (isolate CDC / Honduras)) (UniProt Q27743)", "Unit descriptor": "%", "inhibition": -7}
{"Compound": "CN1CCN(c2nsc3ccc(-c4ccc(OCCN5CCCC5)cc4)cc23)CC1", "Target entity": "L-lactate dehydrogenase (Plasmodium falciparum (isolate CDC / Honduras)) (UniProt Q27743)", "Unit descriptor": "%", "inhibition": 6}
{"Compound": "O=C(NC1CCCCC1)c1csc(C2CCCN(C(=O)c3ccc(O)c(-c4cccc(C(F)(F)F)c4)c3)C2)n1 (stereo not given)", "Target entity": "L-lactate dehydrogenase (Plasmodium falciparum (isolate CDC / Honduras)) (UniProt Q27743)", "Unit descriptor": "%", "inhibition": 5}

Recall the recorded inhibition for Cc1cc(OCCCN2CCC(NS(=O)(=O)c3cccc(Br)c3)C2)c2ccccc2n1 (stereo not given) with L-lactate dehydrogenase (Plasmodium falciparum (isolate CDC / Honduras)) (UniProt Q27743) and state it.
3

Kindly state the measured inhibition obtained for CC(C)c1ccc(-c2nc3ncc(Cl)cc3[nH]2)cc1 with L-lactate dehydrogenase (Plasmodium falciparum (isolate CDC / Honduras)) (UniProt Q27743).
-2
